# Tested on: CAKI-1 renal
# Test Description: NCI tumour cell line growth inhibition, 48 h
Recorded Metric: TGI

| Compound | Study Target | TGI |
| --- | --- | --- |
| CC(=O)NC1C(OCc2ccccc2)OC(CO)C(O)C1OCC(=O)NC(C)C(=O)NC(CCC(=O)NCCCCCC(=O)Nc1ccc2c(c1)CN1C(=O)c3ccccc3C1=N2)C(N)=O (centres undefined) | CAKI-1 renal | > 100 µM |
| COC(=O)[C@]12CC[C@@H](C)[C@H](C)[C@@H]1C1=CC[C@@H]3[C@@]4(C)C(c5ncon5)=C[C@@](C)(CO)C4=CC[C@@]3(C)[C@]1(C)CC2 | CAKI-1 renal | 26 µM |
| NC(=O)Nc1ccc2ncnc(Nc3ccc(Cl)cc3)c2c1 | CAKI-1 renal | 42.2 µM |
| Cc1nnc(N)nc1/C=C\c1cccs1 | CAKI-1 renal | > 100 µM |
| CC(O)(c1ccccc1)c1nccc2ccccc12 (centres undefined) | CAKI-1 renal | > 100 µM |
| Clc1ccc(OCC2NC3C=CC32)cn1 (centres undefined) | CAKI-1 renal | > 100 µM |
| O=C1c2ccccc2C(=O)N1C(=S)c1ccccc1 | CAKI-1 renal | > 100 µM |
| COc1cc2c(cc1OCCCCC(=O)Nc1ccc(-c3nc4ccccc4s3)cc1)N=C[C@@H]1CCCN1C2=O | CAKI-1 renal | 5.96 µM |

Okay, next one:
Prompt line: Complete the entry with TGI for CC(C)[C@@H](C(=O)O[C@@H]1/C=C/C(=O)O[C@@H](C)CCC/C=C/[C@@H]2C[C@H](O)C[C@H]21)[N+](C)(C)C
Response line: > 100 µM
